tgt: PI3Kβ (Homo sapiens (Human))
Sequence (P42338 whole entry, species assumed): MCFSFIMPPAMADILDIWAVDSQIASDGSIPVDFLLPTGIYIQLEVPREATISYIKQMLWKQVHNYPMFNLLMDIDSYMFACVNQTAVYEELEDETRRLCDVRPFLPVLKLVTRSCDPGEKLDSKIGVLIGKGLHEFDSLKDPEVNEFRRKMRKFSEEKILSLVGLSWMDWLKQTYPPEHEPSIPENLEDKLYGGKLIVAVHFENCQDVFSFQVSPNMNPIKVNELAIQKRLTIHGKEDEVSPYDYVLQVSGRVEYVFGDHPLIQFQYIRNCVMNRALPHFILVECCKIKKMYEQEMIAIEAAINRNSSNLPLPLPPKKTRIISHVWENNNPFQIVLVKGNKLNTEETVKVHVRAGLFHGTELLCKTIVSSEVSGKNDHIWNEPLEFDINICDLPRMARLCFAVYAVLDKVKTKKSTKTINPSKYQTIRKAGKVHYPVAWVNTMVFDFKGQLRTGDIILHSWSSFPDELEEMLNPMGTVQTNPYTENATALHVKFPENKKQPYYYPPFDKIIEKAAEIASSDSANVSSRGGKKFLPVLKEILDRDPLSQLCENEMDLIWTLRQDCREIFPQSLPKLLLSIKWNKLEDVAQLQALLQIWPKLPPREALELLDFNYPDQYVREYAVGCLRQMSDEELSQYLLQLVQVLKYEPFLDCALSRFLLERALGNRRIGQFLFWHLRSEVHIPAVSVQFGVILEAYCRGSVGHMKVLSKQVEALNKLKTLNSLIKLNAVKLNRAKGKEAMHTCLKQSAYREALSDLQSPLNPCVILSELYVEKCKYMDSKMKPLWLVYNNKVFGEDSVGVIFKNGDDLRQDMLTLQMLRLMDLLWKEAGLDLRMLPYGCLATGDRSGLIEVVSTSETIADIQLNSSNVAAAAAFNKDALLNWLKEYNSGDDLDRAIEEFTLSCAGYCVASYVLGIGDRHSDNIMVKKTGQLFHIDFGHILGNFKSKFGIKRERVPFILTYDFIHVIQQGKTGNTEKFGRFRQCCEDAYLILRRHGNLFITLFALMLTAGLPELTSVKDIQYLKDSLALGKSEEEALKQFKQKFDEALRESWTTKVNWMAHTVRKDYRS
Sequence (P27986 whole entry partner, species assumed): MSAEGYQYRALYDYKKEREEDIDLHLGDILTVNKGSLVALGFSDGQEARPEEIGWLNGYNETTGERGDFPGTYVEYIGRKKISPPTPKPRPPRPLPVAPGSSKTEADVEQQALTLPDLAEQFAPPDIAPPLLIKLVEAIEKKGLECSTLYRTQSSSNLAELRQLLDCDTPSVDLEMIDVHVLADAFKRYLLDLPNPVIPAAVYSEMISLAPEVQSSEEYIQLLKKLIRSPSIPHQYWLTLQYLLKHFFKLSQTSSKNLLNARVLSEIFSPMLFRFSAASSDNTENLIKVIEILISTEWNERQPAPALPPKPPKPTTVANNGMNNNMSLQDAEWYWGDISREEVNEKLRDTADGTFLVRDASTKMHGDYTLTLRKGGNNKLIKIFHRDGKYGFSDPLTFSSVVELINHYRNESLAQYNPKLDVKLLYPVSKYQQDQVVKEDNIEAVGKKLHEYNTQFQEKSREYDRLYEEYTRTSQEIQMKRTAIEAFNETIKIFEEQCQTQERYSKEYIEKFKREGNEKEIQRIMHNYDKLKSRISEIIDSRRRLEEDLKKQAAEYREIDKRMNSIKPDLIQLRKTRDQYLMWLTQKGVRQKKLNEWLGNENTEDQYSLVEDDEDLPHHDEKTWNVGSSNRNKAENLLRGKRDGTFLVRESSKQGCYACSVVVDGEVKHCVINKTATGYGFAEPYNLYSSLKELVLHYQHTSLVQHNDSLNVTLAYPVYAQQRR
result_type: IC50

>>> data_value("Cc1csc2nc(C(C)Nc3ncnc4[nH]cnc34)c(-c3cc(F)cc(F)c3)c(=O)n12 (single isomer, unassigned)")
"> 500 nM"
